target: Cloned human M1 receptor (CHRM1) stably expressed in HEK293 cells (Homo sapiens); assay: CHRM1 Ca++ Flux Assay (agonist mode, FDSS 7000EX); details: geometric mean if tested more than once
Sequence (P11229 whole entry): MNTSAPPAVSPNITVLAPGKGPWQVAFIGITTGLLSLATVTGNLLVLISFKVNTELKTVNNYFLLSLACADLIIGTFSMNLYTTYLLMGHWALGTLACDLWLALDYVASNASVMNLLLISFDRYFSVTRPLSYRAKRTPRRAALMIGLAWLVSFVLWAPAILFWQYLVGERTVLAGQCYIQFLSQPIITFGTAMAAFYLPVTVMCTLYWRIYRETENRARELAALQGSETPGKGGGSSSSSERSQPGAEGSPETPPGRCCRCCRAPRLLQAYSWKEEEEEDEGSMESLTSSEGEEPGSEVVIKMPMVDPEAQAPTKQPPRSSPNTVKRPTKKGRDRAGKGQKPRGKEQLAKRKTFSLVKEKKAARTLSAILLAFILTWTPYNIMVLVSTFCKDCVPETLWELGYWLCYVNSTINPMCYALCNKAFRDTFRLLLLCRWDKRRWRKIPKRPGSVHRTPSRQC
reported endpoint: EC50

Task: Reported EC50, molecule Cc1nnc(COc2ccccc2C2CCN([C@@H]3CCC4(C3)CN(C(=O)C3(F)CC3)C4)CC2)s1 (single isomer, unassigned) : ____
Result: > 25000 nM

Task: // lookup EC50 for "COc1ccccc1C1CCN([C@@H]2CCC3(C2)CN(c2ccc(C)nc2)C3)CC1"
Result: > 25000 nM

Task: Need EC50, item Fc1ccc(C2CCOC2)c(C2CCN([C@@H]3CCC4(C3)CN(c3nnco3)C4)CC2)c1 (mixture of isomers)
Result: 46 nM

Task: Reported EC50 for "FC1(COc2ccccc2C2CCN([C@@H]3CCC4(C3)CN(c3nncs3)C4)CC2)CCOCC1" : what is it?
Result: 182 nM

Task: Quick one: EC50 for COc1ccccc1C1CCN([C@@H]2CCC3(C2)CN(c2ncns2)C3)CC1 (single isomer, unassigned) [Example 10R] ?
Result: > 25000 nM

Task: Fill in: EC50 of "CC(C)(O)COc1ccccc1C1CCN([C@@H]2CCC3(C2)CN(c2cncnc2)C3)CC1" is ___
Result: 191 nM

Task: Need EC50 of O=C(N1CC2(CC[C@@H](N3CCC(c4cc(F)ccc4C4(O)CCOCC4)CC3)C2)C1)C1(F)CC1 (single isomer, unassigned) [Example 9J] , thanks.
Result: 2690 nM

Task: Quick one: EC50 of "FC1(COc2ccccc2C2CCN([C@@H]3CCC4(C3)CN(c3nncs3)C4)CC2)COC1" ?
Result: 48 nM

Task: Endpoint output: EC50 of "c1ccc(C2CCN([C@@H]3CCC4(C3)CN(c3cncnc3)C4)CC2)c(OCC2COC2)c1" . Value?
Result: 69 nM

Task: What does the data say about its EC50? Entry: Fc1cncc(N2CC3(CC[C@@H](N4CCC(c5cc(F)ccc5OC5CCOCC5)CC4)C3)C2)c1 (single isomer, unassigned) [Example 10A]
Result: 1330 nM

Task: Could you tell me which EC50 is on file for "Cc1ccc(N2CC3(CC[C@@H](N4CCC(c5ccccc5O[C@@H]5CCOC5)CC4)C3)C2)cn1" ?
Result: > 25000 nM

Task: Endpoint output: EC50 of "Cc1ncncc1N1CC2(CC[C@@H](N3CCC(c4ccccc4OCC(C)(C)O)CC3)C2)C1" . Value?
Result: 420 nM

Task: # input molecule: COc1ccccc1C1CCN([C@H]2CCC3(C2)CN(c2ncco2)C3)CC1 (single isomer, unassigned) [Example 10J] ; wanted: its EC50
Result: 20 nM

Task: Need EC50, item "COc1ccccc1C1CCN([C@@H]2CCC3(C2)CN(c2nncs2)C3)CC1"
Result: 42 nM

Task: # input molecule: O=C(N1CC2(CC[C@@H](N3CCC(c4ccccc4OCc4ncccn4)CC3)C2)C1)C1(F)CC1 (single isomer, unassigned) ; wanted: its EC50
Result: 10 nM

Task: Look up EC50: c1ccc(C2CCN([C@H]3CCC4(C3)CN(c3nnco3)C4)CC2)c(C2CCOCC2)c1 (single isomer, unassigned) [Example 10T]
Result: 3920 nM

Task: EC50 lookup needed for "c1ccc(C2CCN([C@@H]3CCC4(C3)CN(c3nnco3)C4)CC2)c(OC[C@H]2COCCO2)c1" , thanks.
Result: 56 nM

Task: What EC50 value was documented for this molecule, O=C(N1CC2(CC[C@@H](N3CCC(c4ccccc4C4(O)CCOCC4)CC3)C2)C1)C1(F)CC1 (single isomer, unassigned) [Example 9H] ?
Result: > 25000 nM

Task: Field request: EC50 | item: "COc1ccccc1C1CCN([C@@H]2CCC3(C2)CN(c2ncnc(C)n2)C3)CC1"
Result: > 25000 nM

Task: # EC50 lookup, item "Cc1coc(N2CC3(CC[C@@H](N4CCC(c5ccccc5OCC(C)(C)O)CC4)C3)C2)n1"
Result: > 25000 nM

Task: GET /values?readout=EC50&item= "COCCOc1ccccc1C1CCN([C@@H]2CCC3(C2)CN(c2cnc(C)cn2)C3)CC1"
Result: > 25000 nM

Task: Name the reported EC50 value associated with the molecule O=C(N1CC2(CC[C@@H](N3CCC(c4cc(F)ccc4C4(O)CCOCC4)CC3)C2)C1)C1(F)CC1 (single isomer, unassigned) [Example 9I]
Result: 92 nM

Task: # input molecule: "c1ccc(C2CCN([C@@H]3CCC4(C3)CN(c3nnco3)C4)CC2)c(O[C@@H]2CCOC2)c1" ; wanted: its EC50
Result: 36 nM

Task: I am curious: what EC50 value has been reported for "O=C(C1COC1)N1CC2(CC[C@@H](N3CCC(c4ccccc4OCCC(F)(F)F)CC3)C2)C1" ?
Result: 39 nM

Task: Look up EC50 for this molecule: O=C(N1CC2(CC[C@@H](N3CCC(c4ccccc4OCC4CCOCC4)CC3)C2)C1)C1(F)CC1 (single isomer, unassigned)
Result: 135 nM

Task: Which measured EC50 value corresponds to O=C(N1CC2(CC[C@@H](N3CCC(c4ccccc4OCCO)CC3)C2)C1)C1(F)CC1 (single isomer, unassigned) ?
Result: 22 nM

Task: What value of measured EC50 is listed for "CC1(COc2ccccc2C2CCN([C@@H]3CCC4(C3)CN(c3nnco3)C4)CC2)CCOCC1" ?
Result: 381 nM

Task: Reported EC50 for "CC(C)Oc1cc(F)ccc1C1CCN([C@@H]2CCC3(C2)CN(C(=O)C2COC2)C3)CC1" : what is it?
Result: 18 nM
